test: folding enthalpy; higher = less favourable; fluorescence melt of hairpins on a sequencing array, two-state fit; settings: sodium 0.088 M
Listing of recorded folding enthalpy by entry.
value.type: folding enthalpy (kcal/mol)

>>> data_value("GGTTGCGAAAGCAGAACC ((((((....)))..)))")
-19.8
>>> data_value("GATCAGGATACTGATC ((((((....))))))")
-33.8
>>> data_value("GGTTCTGGAAACAGAACC (((((((....)))))))")
-46.5
>>> data_value("GCTCCCGAAAGGGGTAGC ((((((....)))..)))")
-18.1
>>> data_value("GGGGGCGAAAGCCTACCC ((((((....)))..)))")
-15
>>> data_value("GATCCGCCGTCGGATC ((((((....))))))")
-40.7
>>> data_value("GCCTGAGAAATCAGGC ((((((....))))))")
-39.2
>>> data_value("GGGAGGCGAAAGCCACCC (((.(((....))).)))")
-25.1
>>> data_value("GCACTGCGAAAGCGGAGC ((.(.((....)).).))")
-19.8
>>> data_value("GCTATGCGAAAGCCTAGC ((((.((....)).))))")
-28.8
>>> data_value("GAGCTGGGAAACTGGCTC ((((..(....)..))))")
-27.6
>>> data_value("GACGTACCGAAAGGTGTC (((..(((....))))))")
-22.4

----------
experiment: melting temperature; fluorescence melt of hairpins on a sequencing array, two-state fit, raised by 9.35 °C to match UV melts; settings: sodium 0.088 M
Classification by Tm follows these ranges: bottom: < 40 °C; middle: ≥ 40 °C and < 50 °C; top: ≥ 50 °C

>>> cat("GAAGCAGGAAACTGTTTC (((.(((....))).)))")
"bottom"
>>> cat("GGGAGAACGAAAGTTCCC (((..(((....))))))")
"middle"
>>> cat("GATCCCCCCTGGGATC ((((((....))))))")
"top"
>>> cat("GCTGCCCCGAAAGGGAGC (((..(((....))))))")
"top"
>>> cat("GTGCATCCGAAAGGACAC (((..(((....))))))")
"bottom"
>>> cat("CGGTCGGAAACGAAACCG ((((((....)))..)))")
"middle"
>>> cat("CGCCCGGAAACGGAGCG ((((((....))).)))")
"top"
>>> cat("GTGTACCGAAAGGTCAC (((.(((....))))))")
"top"
>>> cat("GCTCAGCGAAAGCTGCGC ((.((((....)))).))")
"top"
>>> cat("GATCGTCTTGACGATC ((((((....))))))")
"top"
>>> cat("GATCGTCGAGACGATC ((((((....))))))")
"top"
>>> cat("GTCCGCGGAAACACGGAC (((((.(....).)))))")
"top"
>>> cat("GCGTATCACGC ((((...))))")
"top"
>>> cat("GATACCGAAAGGTAGATC ((((((....)))..)))")
"middle"
>>> cat("GCTTTGCGAAAGCATAGC (((.(((....))).)))")
"top"
>>> cat("GCAGACGAAAGTCTATGC ((((((....)))..)))")
"middle"
>>> cat("GATAGCGAAAGCTTAATC ((((((....)))..)))")
"bottom"
>>> cat("GTACAGGGAAACCCGTAC ((((.((....)).))))")
"middle"

----------
test: folding enthalpy; higher = less favourable; fluorescence melt of hairpins on a sequencing array, two-state fit; conditions: sodium 0.088 M
Decision: folding enthalpy compared against -30 kcal/mol; not below it gives True, below it gives False.

>>> cat("GAATCAGGAAACCGATTC (((((.(....).)))))")
"True"
>>> cat("GAGCAACGAAAGTTACTC (((.(((....))).)))")
"True"
>>> cat("GCCACGCGAAAGCGTTGC ((.((((....)))).))")
"True"
>>> cat("GCCAGCGAAAGCTGAGGC ((((((....)))..)))")
"True"
>>> cat("GTTTTGGGAAACCGAAAC ((((.((....)).))))")
"False"
>>> cat("GAGTCGGGAAACCGGCTC (((.(((....))).)))")
"False"
>>> cat("GGATTCCGAAAGGACTCC (((.(((....))).)))")
"False"
>>> cat("GATCGTCGTGACGATC ((((((....))))))")
"False"
>>> cat("GATCGCTGAGGCGATC ((((((....))))))")
"False"
>>> cat("GATCATTGATATGATC ((((((....))))))")
"True"
>>> cat("GTCACCGAAAGGTTTGAC ((((((....)))..)))")
"True"
>>> cat("GATCCCGGCGGGGATC ((((((....))))))")
"False"

----------
assay: folding enthalpy; higher = less favourable; fluorescence melt of hairpins on a sequencing array, two-state fit; conditions: sodium 0.088 M
Decision: folding enthalpy compared against -20 kcal/mol; not below it gives TRUE, below it gives FALSE.

>>> cat("GCGGACGAAAGTCCCCGC ((((((....)))..)))")
"TRUE"
>>> cat("GAAGTACGAAAGTAATTC (((.(((....))).)))")
"FALSE"
>>> cat("GTCAGTCGAAAGACCGAC (((.(((....))).)))")
"FALSE"
>>> cat("GTTAAACGAAAGTTAAAC (((.(((....))).)))")
"TRUE"
>>> cat("GCCTCTTCGAAAGAAGGC (((..(((....))))))")
"TRUE"
>>> cat("GGGTTGCGAAAGCACCCC (((.(((....))).)))")
"TRUE"

----------
assay: folding enthalpy; higher = less favourable; fluorescence melt of hairpins on a sequencing array, two-state fit; details: sodium 0.088 M
Decision: folding enthalpy compared against -20 kcal/mol; not below it gives yes (1), below it gives no (0).

>>> cat("GATCCCGGACGGGATC ((((((....))))))")
"no (0)"
>>> cat("CGGTCCGGAAACGGCCG (((.(((....))))))")
"no (0)"
>>> cat("GGCTGTGGAAACGTAGCC ((((..(....)..))))")
"no (0)"
>>> cat("CGCGACGGAAACGTAGCG (((.(((....))).)))")
"no (0)"
>>> cat("GATCTGCTCGCAGATC ((((((....))))))")
"no (0)"
>>> cat("GCCTGGCGAAAGCCCAGC ((..(((....)))..))")
"yes (1)"
>>> cat("GCGTAGGGAAACCTACAC (.(((((....))))).)")
"yes (1)"
>>> cat("GACTAACGAAAGTTGTC (((.(((....))))))")
"no (0)"
>>> cat("CATCAGAAATGATG (((((....)))))")
"yes (1)"
>>> cat("GATGTTGGAAACAATATC (((.(((....))).)))")
"no (0)"
>>> cat("GAGCTCCGAAAGGACTC (((.(((....))))))")
"no (0)"
>>> cat("GAGTGTGCGAAAGCACTC (((..(((....))))))")
"yes (1)"

----------
assay: melting temperature; fluorescence melt of hairpins on a sequencing array, two-state fit, raised by 9.35 °C to match UV melts; conditions: sodium 0.088 M
Decision: Tm compared against 40 °C; not below it gives T, below it gives F.

>>> cat("GCACGTGGAAACGTGTGC ((((..(....)..))))")
"T"
>>> cat("GCGAAGCGAAAGCTGCGC (((.(((....))).)))")
"T"
>>> cat("GAACAAGAAATTGTTC ((((((....))))))")
"T"
>>> cat("GATCCGTCGGCGGATC ((((((....))))))")
"T"
>>> cat("GCGGACCCCGC ((((...))))")
"T"
>>> cat("GATGAGCGAAAGCTATC (((.(((....))))))")
"F"
>>> cat("GGGGAATCGAAAGATCCC (((..(((....))))))")
"T"
>>> cat("GCTGTACGAAAGTATAGC (((.(((....))).)))")
"T"
>>> cat("GATGATGGAAACATTGTC ((..(((....)))..))")
"F"
>>> cat("GTGTATCGAAAGATGCAC (((.(((....))).)))")
"T"
>>> cat("GCACGGCGAAAGCGGAGC ((.(.((....)).).))")
"T"
>>> cat("GATTATGGAAACGTAATC (((((.(....).)))))")
"F"
